experimentalDetails: yeast display, Sf9 membrane polyspecificity reagent, FACS + sequencing; frameworks hold sequencing errors
propertyMeasured: polyreactivity (PSR sort gate)

Observe how each entry below is paired with its result.
QVQLVVSGGGLVQAGGSLRLSCAASGSIFRFYTMGWYRQAPGKERELVAAISASGGNTYYADSVKGRFTISRDNAKNTVYLQMNSLKPEDTAVYYCARVKFTKYDYWGQGTQVTVSS = high polyreactivity
QVQLVESGGGLVQAGGSLRLSCAASGFTFKYYAMGWYRQAPGKERELVAAITWSGGSTYYADSVKGRFTISRDNAKNTVYLQMNSLKPEDTAVYYCNAKVYQISRYGYWGQGTQVTVSS = high polyreactivity
QVQLVESGGGLVQAGGSLRLSCAASGSIFKQNDMGWYRHAPGKERELVAAITYTGGSTYYADSVKGRFTISRDNAKNTVYLQMNSLKPEDTAVYYCAARITSPRARSRGFYYWGQGTQVTVSS = high polyreactivity
QVQLVESGGGLVQAGGSLRLTCAASGRIFDGYAMGWYRQPPRKERELVAAISSRGGRTYYADSVKGRFTISRDNAKNTVYLQMNSLKPEDTAVYYCAADDPYGEGDYWGQGTQVTVSS = low polyreactivity
QVQLVESGGGLVQAGGSLRLSCAASGSIFLVYAMGWYRQAPGKERELVAGITSDDSTNYADSVKGRFTISRDNAKNTVYLQINRLKPEDTAVYYCAKDSLGLYIVDLGYWGQGTQVTVSS = low polyreactivity

Return reported polyreactivity (PSR sort gate); argument: QVQLVESGGGLVQAGGSLRLSCAASGGIFTINAMGWYRQAPGKERELVAAITYGGTSTNYADSVKGRFTISRDNAKNTVYLQMNSLKPEDTAVYYCAKLPNLPGDYWGQGTQVTVSS
low polyreactivity

Return reported polyreactivity (PSR sort gate); argument: QVQLVESGGGLVQAGGSLRLTCAASGRIFGPYVLGWYRQAPGKERELVAAISTSGTSTYYADSVKGRFTISRDNAKNTVYLQMNSLKPEDTAVYYCAKRSGARHRLMDYWGQGTQVTVSS
low polyreactivity

Return reported polyreactivity (PSR sort gate); argument: QVQLVESGGGLVQAGGSLRLSCAASGRTFYYYAMGWYRQAPGKERELVAAISGSGGSTYYADSVKGRFTISRDIAKNTVYLQMNSLKPEDTAVYYCAASGPRRRYDYWGQGTQVTVSS
high polyreactivity

Return reported polyreactivity (PSR sort gate); argument: QVQLVESGGGLVQAGGSLRLSSAASGRTFFRSGMGWYRQAPGKEREFVAAITRSGTTTYYADSVKGRFTISRDNAKQTVYLPMNSLQPEDTAVYYCAAQRAAPVDGKSDYWGHGTQVTVSS
low polyreactivity

Return reported polyreactivity (PSR sort gate); argument: QVQLVESGGGLVQAGGSLRISCAASGRIFKYYGMGWYRQAPGKERELVAAITRGDSTNYADSVKGRFTISRDNAKNTVYLQMNSLKPEETAVYYCNVGTRRGYDYWGQGTQVTVSS
high polyreactivity

Return reported polyreactivity (PSR sort gate); argument: QVQLVESGGGLVQAGGSLRLSCAASGRIFNYNAMGWYRQAPGKERELVATITRGGNTYYADSVKGRFTISRDNAKNTVYLQMNSLKPEDTAVYYCNAAWWKVSYVRQKYYYWGQGTQVTVSS
high polyreactivity

* * *

experimentalDetails: yeast display, Sf9 membrane polyspecificity reagent, FACS + sequencing; frameworks hold sequencing errors
propertyMeasured: polyreactivity (PSR sort gate)

QVQLVESGGGLVQAGGSLRLSCAASGRIFRIYAMGWYRQAPGKERELVASISDRGTRTYYADSVKGRFTISRDNAKNTVYLQMNSLKPEDTAVYYCAASTYTKFHTYYKSQASDYWGQGTQVTVSS = high polyreactivity
QVQLEESGGGLVQAGGSLRLSCAASGRIFGGNAMGWYRQAPGKERELVAAINSSGGRTYYADSLKGRFTISRDNAKYTVYLQMNSLKTEDTAVYYCSARVVGNWYDYWGQGTQVTVSS = high polyreactivity

* * *

experimentalDetails: yeast display, Sf9 membrane polyspecificity reagent, FACS + sequencing; frameworks hold sequencing errors
propertyMeasured: polyreactivity (PSR sort gate)

QVQLVESGGGLVQAGGSLRLSCAASGSIFKIYAMGWSRQAPGKERELVAAISRSVGSTYADSVKGRFTISRDNAKNTVYLQMNSLKPEDTAVYYCNARYKSRLYPRYDYWGQGTQVTVSS = high polyreactivity
QVQLVESGGGLVQAGGSLRLSCAASGSIFDPYAMGWSRQAPGKEREFVAAISYSAGSTYYADSVKGRFTISRDNAKNTVYLQMNSLKPEATAVYYCAARYTHTSPSIRSWAYYYWGQGTQVTVSS = high polyreactivity
QVQLVESGGGLVQAGGSLRLSCAASGLTFWAYTMGWYRQAPGKERELVAAITSSGGRTYYADSVKGRFTISRDNAKNTVYLQMNSLKPEDTAVYYCAALGGRYRASTYGYWGQGTQVTVSS = high polyreactivity
QVQLVESGGGLVQAGGSLRLSCAASGITLYYYAMGWYRQAPGKERELVAAISTSGGTTYYADSVKGRFTISRDNAKYTVYLQMNSLKPEDTAVYYCAARRRAFGSTYNYWGQGTQVTVSS = high polyreactivity

* * *

experimentalDetails: yeast display, Sf9 membrane polyspecificity reagent, FACS + sequencing; frameworks hold sequencing errors
propertyMeasured: polyreactivity (PSR sort gate)

QVQLVESGGGLVQAGGGLRLSCAASGSTFVKNAMGWYRQAPGKERELVAAISYRGGRTYYADSVKGRFTISRDNAKNTVYLQMNSLKPEDTAVYYCAADASHLTGSEYWGQGTQVTVSS = high polyreactivity
QVQLVESGGGLVHAGGSLRLSCAASGSIYPSYGMGWYRQAPGKERELVARITSGGGTNYADSVKGRFTISRDNAKNTVYLQMNSLKPEDTAVYYCAAQSTTIEDGWYVEYNYWGQGTQVTVSS = high polyreactivity
QVQLVESGGGLVQAGGSLRLSCAASGSIIVLNAMGWYRQAPGKERELVAAITSGGSTYYADSVKGRFTISRDNAKNTVYLQMNSLKPEDTAVYYCNALDLSPSYKYDYWGQGTQVTVSS = low polyreactivity
QVQLVESGGGLVQSGGSLRLSCAASGRTFFKYSMGWYRQAPGKEREMVATITSSGGITYADSVKGRFTISRDNAKNSVYLQMNSLKPEDTAVYYCNARVWVTHYSELNYWGQGTQVTVSS = low polyreactivity

As a next step, examine the sequence that follows.
Return reported polyreactivity (PSR sort gate); argument: QVQLVESGGGLVQAGGSLRLSCAASGFTFTRNAMGWYRQAPGKEREFVAAITRSGGSTYYADSVKGRFTISRDNAKNTVYLQMNSLKPEDTAVYYCNKRSPSTIRFDYWGQGTQVTVSS
high polyreactivity

* * *

experimentalDetails: yeast display, Sf9 membrane polyspecificity reagent, FACS + sequencing; frameworks hold sequencing errors
propertyMeasured: polyreactivity (PSR sort gate)

QVQLQESGGGLVQAGGSLRLSCAASGYIFPRIYMGWYRQAPGKEREFDAGISYDAITNYADSVKGRYTISLDNAKNTVYLQMNSLKPEDTAVYYCAVSYYGTPLFTYWGQGTQVTVSS = high polyreactivity
QVQLVESGGGLLQAGGSLRLSCAASGRIFRGYAMGWYRQAPGKESELVAGITSGGSTKYADSVKGRFTISRDNAKNTVYLQMNSLKPEDTAVYYCAKGYLPYSYYARPYIRYYWGQGTQVTVSS = high polyreactivity
QDHLVESGGGLVQAGGSLRLSCSASGSNFRSYAMGWYRQAPGKERELVAAITWSGGRTYYADSVKGRFTISRDNAKNTVYLQMNSLKPEDTAVYYCNAVYLAYGGAYWGQGTQVTVSS = high polyreactivity

* * *

experimentalDetails: yeast display, Sf9 membrane polyspecificity reagent, FACS + sequencing; frameworks hold sequencing errors
propertyMeasured: polyreactivity (PSR sort gate)

QVQLVESGGGLVQAGASLRLSSAASGSTFSRYAMGWYRQAPGKEREFVADITFRTSSTNYADSVKGRFTISRDNAKNTVYLQMNSLKPEDTAVYDCAADVIFTWLAYSTEYDYWGQGSQVTVSS = low polyreactivity
QVQHVESGGGLLQAGGSLRLICAAYGSTFGTYAMGWYRQAPGKERELVATISIGGITYYADSVKGRFTNSRDNAKYTVYLQMNSLKPEVTAVYYCAKDVTDATSRSDPSGDDYWGQGTQVTVSS = low polyreactivity
QVQLVESGGGLVQAGGSLRLSCAASGFIFFAYAMGWYRQAPGKERELVAAISRTGGSTYYADSVKGRFTISRDNAKNTVYLEMNSLKPEDTAVYYCAAVVSRTYQWWTYDYWGQGTQVTVSS = high polyreactivity
QVQLQESGGGMEQAGGSLRLSCAASGYISWADYMVWYRQAPGKERELVAGIGYGSTTYYADSVKGRFTISRANAKNTAYLQMNSLKPEDTAVYYCAVGWYRDTAYKYWGQGTQVTVSS = low polyreactivity

As a next step, examine the sequence that follows.
Return reported polyreactivity (PSR sort gate); argument: QVQLVESGGGLVQAGGSLRLSCAASGITFRRNAMGWYRQAPGKERELVARITGSGGSTYYADSVKGRFTISRDNAKNTVYLQMNSLKPEATAVYYCATERYGKYAMDYWGQGTQVTVSS
high polyreactivity
